Test system: RIPK2;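 further: KINOMEscan kinase panel screen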
Settings: concentration: 1 μM, replicates: in singlicate; n = 1
measured-property: %Inh (%)
Answers are plain numbers, in %.

Worked cases, answers included:
Cc1ccc(NC(=O)c2cccc(N3CCCCC3)c2)cc1-c1ccc(C(=O)NCC2CC2)cc1 [GSK1917008]; 6
CNc1nccc(-c2ccc3c(N)n[nH]c3c2)n1 [GSK2206003]; 0
Cc1cccc(Nc2nc(NCCN)ncc2C(N)=O)c1 [GSK1292139]; 0
CCn1c(-c2nonc2N)nc2c(-c3ccccc3)ncc(OCCCN)c21.O=C(O)C(F)(F)F.O=C(O)C(F)(F)F [GSK260205]; 30
CSc1ccc(NC2=C(c3ccc(Cl)cc3)C(=O)NC2=O)cc1 [SB-317658]; 0

// each listed compound needs a value for %Inh
1. COc1cccc2c(-c3ccncc3)c(-c3ccc(F)cc3)nn12 [GW468513]
2. O=C(Nc1n[nH]c2cc(-c3cccs3)ccc12)C1CC1 [SB-731284]

Result ::
1. 56
2. 4
